Molecular target: cynomolgus BK1-receptor (Macaca fascicularis)
Sequence (Q3BCU0 1-352): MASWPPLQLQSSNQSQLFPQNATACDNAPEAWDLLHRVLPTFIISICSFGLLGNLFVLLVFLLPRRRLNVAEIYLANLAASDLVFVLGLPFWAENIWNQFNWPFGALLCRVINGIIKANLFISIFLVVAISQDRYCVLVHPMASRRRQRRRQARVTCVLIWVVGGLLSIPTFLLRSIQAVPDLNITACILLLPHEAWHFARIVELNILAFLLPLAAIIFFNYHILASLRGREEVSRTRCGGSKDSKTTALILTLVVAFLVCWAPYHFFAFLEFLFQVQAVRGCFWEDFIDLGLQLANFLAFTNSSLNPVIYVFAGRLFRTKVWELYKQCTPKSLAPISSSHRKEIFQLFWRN

SMILES_RECORD	Ki
O=C(N[C@@]1(C(=O)NCc2ncc(Nc3ccc(Cl)cc3C(F)(F)F)cc2F)CCOC1)c1cn[nH]c(=O)c1	5.6 nM

Origin of measurements: patent US8901127B2
